Hello, the source for this data is BigSolDB 2.1, in case you need it.

condition_label: in toluene, 293.15 K
readout_label: solubility (mole fraction)
I'd appreciate a reply containing only the number, no unit.

Inquiry: I would be grateful if you could share the reported solubility (mole fraction) for O=C1NC23NC(=O)NC2(N1)C(=O)NC3=O (stereo unspecified) .
Reply text: 8.4e-06

====

condition_label: in toluene, 303.15 K
readout_label: solubility (mole fraction)
Number, no unit, nothing else.

Inquiry: Please look up its solubility (mole fraction): O=C1NC23NC(=O)NC2(N1)C(=O)NC3=O (stereo unspecified)
Reply text: 1.28e-05

====

condition_label: in ethylene glycol, 273.15 K
readout_label: solubility (mole fraction)
// no unit string in output, number only

Inquiry: Sample O=C1NC23NC(=O)NC2(N1)C(=O)NC3=O (stereo unspecified) — what was its solubility (mole fraction)?
Reply text: 0.00029
